test system: UO-31; assay: NCI tumour cell line growth inhibition, 48 h
Active and inactive are the calls of the source. Cut-off read from the data, not from the text of the source: active = GI50 up to about 1.1 µM and inactive = higher.
Below is a list of entries, each paired with its recorded GI50 value.

{"columns": ["Compound", "GI50"],
 "data": [
  ["CSc1nc2ccccc2c(=O)n1/N=C1\\C(=O)N(CN2CCOCC2)c2ccc(Cl)cc21", "28.1 µM (inactive)"],
  ["Cc1cccc(C(C)(C)C)c1NC(=O)C(=O)Cc1nc2ccccc2s1", "> 100 µM (inactive)"],
  ["COc1ccc(C(=O)C2CCC(C(=O)O)C2)cc1 (stereo unspecified)", "> 100 µM (inactive)"],
  ["CC(C)(C)[Si](C)(C)OCC#C[C@@]1(O)CCCCC1CC(Sc1ccccc1)Sc1ccccc1 (stereo partly specified)", "13.9 µM (inactive)"],
  ["Cc1nc2ccc(Br)cc2c(=O)n1-c1nnc(C(C)(C)C)s1", "2 µM (inactive)"],
  ["CN(C(=O)c1ccc(OCCCC(=O)O)c(Cl)c1Cl)C1CCCC1", "> 60 µM (inactive)"],
  ["NCCCc1c(-c2ccccc2)[nH]c(N)nc1=O", "> 100 µM (inactive)"],
  ["Cc1cc2c(c(C)c1O)C(C)(C)CN2C(=O)C(C)(C)C", "74.5 µM (inactive)"],
  ["CC1(C)CC(=O)C/C(=N/c2ccc([N+](=O)[O-])cc2)C1", "54.6 µM (inactive)"],
  ["CC1(C)CC2C(/C1=N/O)C1(C)CCCC2(C)C1O (stereo unspecified)", "> 100 µM (inactive)"],
  ["COc1ccc(/C=C2\\CCCCCC2=O)cc1", "> 100 µM (inactive)"]
]}

====

tested on: OVCAR-3; assay: NCI tumour cell line growth inhibition, 48 h
Calls of active or inactive are those of the source. Rule as the data show it: active = GI50 up to about 1.1 µM and inactive = higher.
Outcome codes: active, inactive

{"columns": ["Compound", "Label class"],
 "data": [
  ["Cc1cc(N(CCC#N)CCC#N)ccc1/C=N\\c1ccc(C(=O)NN2C(=O)/C(=C/c3ccc(N(CCC#N)CCC#N)cc3)N=C2c2cc([N+](=O)[O-])ccc2Cl)cc1", "inactive"],
  ["N=C(N)NCCCC(Nc1c2ccccc2nc2ccccc12)C(=O)O (centres undefined)", "inactive"],
  ["Cc1cccc(C)c1NC(=O)C(=O)Nn1c(NN)nc2ccccc2c1=O", "inactive"],
  ["O=C(O)CSc1nnc(Cc2ccccc2)[nH]1", "inactive"],
  ["CC(CCCCNC(=O)OC(C)(C)C)NC(=O)NC(C)CCCCNC(=O)OC(C)(C)C (centres undefined)", "inactive"],
  ["O/N=C1/C(=C/c2ccccc2)CCCC1C(NO)c1ccccc1 (centres undefined)", "inactive"],
  ["COc1ccc(/C=C(\\NC(=O)c2ccccc2)c2nc3ccccc3[nH]2)cc1", "inactive"],
  ["CCOC(=O)C(N)CSC(=O)NC (centres undefined)", "inactive"],
  ["O=C1/C(=C\\c2ccc([N+](=O)[O-])cc2)CS(=O)(=O)C/C1=C/c1ccc([N+](=O)[O-])cc1", "active"],
  ["COc1ccc(C2C(C(=O)O)=C(COC(C)=O)Oc3cc4c(cc32)OCO4)cc1 (centres undefined)", "inactive"],
  ["CC(C)[C@]12O[C@H]1[C@@H]1O[C@@]13[C@@]1(C)CCC4=C(COC4=O)[C@@H]1C[C@@H]1O[C@@]13C2=O [TRIPTONIDE]", "active"],
  ["Cc1ccc2oc(=O)c(C(=O)Nc3nc(C45CC6CC(CC(C6)C4)C5)cs3)cc2c1", "inactive"],
  ["CC(=O)O[C@H]1C[C@]2(O)[C@@H]3CC[C@@H]4C[C@@H](O)CC[C@]4(C)[C@H]3CC[C@]2(C)[C@H]1C1=CC(=O)OC1", "active"],
  ["CN1CCN(c2ccc3nc(-c4cc(O)c5c(nc(CO)n5C)c4O)[nH]c3n2)CC1", "inactive"],
  ["CC(=O)NC1C(OC(C)C(=O)NC(C(=O)NC(CCC(=O)NCCCNC2c3ccccc3Nc3cccc([N+](=O)[O-])c32)C(N)=O)C(C)C)C(O)C(CO)OC1(C)OCc1ccccc1 (centres undefined)", "active"],
  ["COc1cc(Nc2nc3cc(C)ccc3nc2-c2ccccc2)cc(OC)c1OC", "inactive"],
  ["O=C1C(c2c(O)[nH]c3ccc(S(=O)(=O)O)cc23)=Nc2ccccc21", "inactive"],
  ["Clc1ccccc1-c1nnc2c(-c3ccccc3)nc3ccccc3n12", "inactive"],
  ["COC1C=CC(O)C(CO)O1 (centres undefined)", "inactive"]
]}
